Kd listing for selected compounds.
- TARGET UNDER TEST: recombinant human E-selectin/CD63E Fc Chimera (Homo sapiens)
- Sequence (P16581 with tags, fused parts or gaps limits assumed): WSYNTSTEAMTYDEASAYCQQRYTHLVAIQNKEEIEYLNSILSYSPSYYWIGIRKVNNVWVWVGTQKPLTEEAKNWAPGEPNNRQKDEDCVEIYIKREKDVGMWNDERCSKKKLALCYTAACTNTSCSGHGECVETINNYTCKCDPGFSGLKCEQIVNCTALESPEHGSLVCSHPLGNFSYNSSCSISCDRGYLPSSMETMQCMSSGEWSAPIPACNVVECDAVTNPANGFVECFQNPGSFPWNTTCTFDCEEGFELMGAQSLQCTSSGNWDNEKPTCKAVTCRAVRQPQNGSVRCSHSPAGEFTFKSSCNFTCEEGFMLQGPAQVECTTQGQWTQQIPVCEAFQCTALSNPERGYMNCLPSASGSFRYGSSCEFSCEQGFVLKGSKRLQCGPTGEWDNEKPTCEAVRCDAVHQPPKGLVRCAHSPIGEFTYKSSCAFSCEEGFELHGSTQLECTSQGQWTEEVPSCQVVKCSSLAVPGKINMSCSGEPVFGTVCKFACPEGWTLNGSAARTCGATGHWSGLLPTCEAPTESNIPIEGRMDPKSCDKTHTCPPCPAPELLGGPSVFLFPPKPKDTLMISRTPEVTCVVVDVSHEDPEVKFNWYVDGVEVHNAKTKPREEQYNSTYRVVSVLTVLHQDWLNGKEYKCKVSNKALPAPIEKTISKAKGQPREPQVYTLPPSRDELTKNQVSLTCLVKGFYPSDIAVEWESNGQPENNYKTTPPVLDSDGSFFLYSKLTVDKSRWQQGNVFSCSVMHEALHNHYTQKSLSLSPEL
- ASSAY PROTOCOL: E-selectin activity, analysis by SPR (Biacore X100)
- RUN PARAMETERS: Biacore X100, CM5 chip, E-selectin Fc chimera captured on anti-human IgG (Fc) antibody
Quick reminder: number only, in nM, skip the unit.

# COMPOUND, UNIT TEXT, Kd
measured = [
    ("CCC1CC(C(=O)NCCNC(=O)CCOCCOCCOCCOCCOCCOCCOCCOCCOCCOCCOCCOCCOCCOCCOCCOCCOCCOCCOCCOCCOCCC(=O)NCCNC(=O)C2CC(CC)C(OC3OC(C)C(O)C(O)C3O)C(OC3OC(CO)C(O)C(OC(CC4CCCCC4)C(=O)O)C3NC(C)=O)C2)CC(OC2OC(CO)C(O)C(OC(CC3CCCCC3)C(=O)O)C2NC(C)=O)C1OC1OC(C)C(O)C(O)C1O (stereo not drawn) [Compound 13]", "nM", 4.7),
]

Param item = CC[C@H]1C[C@@H](C(=O)NCCNC(=O)c2cn(CCOCCOCCOCCn3cc(C(=O)NCCNC(=O)[C@@H]4C[C@H](CC)[C@@H](O[C@@H]5O[C@@H](C)[C@@H](O)[C@@H](O)[C@@H]5O)[C@H](O[C@@H]5O[C@H](CO)[C@H](O)[C@H](O[C@@H](CC6CCCCC6)C(=O)O)[C@H]5NC(C)=O)C4)nn3)nn2)C[C@@H](OC2O[C@H](CO)[C@H](O)[C@H](O[C@@H](CC3CCCCC3)C(=O)O)[C@H]2NC(C)=O)[C@@H]1OC1O[C@@H](C)[C@@H](O)[C@@H](O)[C@@H]1O (stereo partly drawn) [Compound 27] ; retrieve measured Kd. 8.6

Report Kd for CCC1CC(C(=O)NCCNC(=O)CCOCCOCCOCCOCCOCCOCCOCCOCCOCCOCCOCCOCCOCCC(=O)NCCNC(=O)C2CC(CC)C(OC3OC(C)C(O)C(O)C3O)C(OC3OC(CO)C(O)C(OC(CC4CCCCC4)C(=O)O)C3NC(C)=O)C2)CC(OC2OC(CO)C(O)C(OC(CC3CCCCC3)C(=O)O)C2NC(C)=O)C1OC1OC(C)C(O)C(O)C1O (stereo not drawn) [Compound 14] please. 6.6
